Below, each entry is listed alongside its reported hepatocyte CLint at 1 µM.
Test: Clearance in human hepatocytes assessed per million cells at 1 uM after 5 to 90 mins by LC-MS/MS analysis
Format: ADME, cell-based, Hepatocyte
Settings: read-out: CLH

COMPOUND: COc1ccc(Nc2c(NC(C)(C)CCCCC(=O)NO)c(=O)c2=O)cc1
hepatocyte CLint at 1 µM: 9.2 µL/min/1e6 cells
--
COMPOUND: COc1ccc(Nc2c(NCCCCCC(=O)NO)c(=O)c2=O)cc1
hepatocyte CLint at 1 µM: < 4.7 µL/min/1e6 cells
--
COMPOUND: CC(C)(Nc1c(NCCCCCC(=O)NO)c(=O)c1=O)c1ccccc1
hepatocyte CLint at 1 µM: < 5 µL/min/1e6 cells

Given CC(C)C(CCCCC(=O)NO)Nc1c(Nc2ccc(C(F)(F)F)cc2)c(=O)c1=O (racemic) , state its recorded hepatocyte CLint at 1 µM.
27 µL/min/1e6 cells

Item under review: Cc1cc2ccc(Nc3c(NCCCCCC(=O)NO)c(=O)c3=O)cc2[nH]1 . Reported hepatocyte CLint at 1 µM?
< 5 µL/min/1e6 cells

For the compound Cc1ccc([C@H](C)Nc2c(NCCCCCC(=O)NO)c(=O)c2=O)cc1 , what hepatocyte CLint at 1 µM is on record?
< 5 µL/min/1e6 cells
